# assay_remarks: A qHTS for Small Molecule Inhibitors of Shiga Toxin; note: 0% is about no effect
# run_parameters: Vero cells, Shiga toxin protein synthesis inhibition reporter; at 38.7 µM, active compounds read high
The campaign covered roughly 290,000 compounds. About 27,000 (9.3%) were called active. The sample holds actives, similar compounds and a random draw of the others, so the mix is not that of the screen.
Below is a list of entries, each paired with its recorded inhibition value.

compound	units_symbol	inhibition
Cc1cccn2c(=O)c(C=O)c(Nc3ccc(S(N)(=O)=O)cc3)nc12	%	3.64
CC(C)(C)NS(=O)(=O)c1ccc(NC(=O)NC2CCCCC2)cc1	%	56.6
O=C(Nc1ccc2c(c1)OCCO2)C1CCCN(c2ncccn2)C1 (stereo not drawn)	%	66.6
